These entries and their values trace back to ChEMBL document CHEMBL4373681.

# tgt: UniProtKB P21462
# Sequence (P21462 whole entry): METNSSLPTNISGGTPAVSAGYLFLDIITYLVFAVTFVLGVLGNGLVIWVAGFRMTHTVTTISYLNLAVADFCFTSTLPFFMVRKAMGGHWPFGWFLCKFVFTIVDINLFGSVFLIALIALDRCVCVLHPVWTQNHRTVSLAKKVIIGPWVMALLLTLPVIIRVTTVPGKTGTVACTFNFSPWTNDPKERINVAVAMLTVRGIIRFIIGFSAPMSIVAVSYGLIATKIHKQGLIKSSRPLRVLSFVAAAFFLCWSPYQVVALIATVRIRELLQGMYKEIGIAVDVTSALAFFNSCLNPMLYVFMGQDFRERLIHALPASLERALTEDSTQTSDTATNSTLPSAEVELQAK
# protocol.text: Agonist activity at FPR1 in human neutrophils assessed as calcium mobilization incubated for 30 mins and measured for 5 sec for 240 sec by fluorometry
# Type: functional
Non-standard residues stand in square brackets, D forms with d. Residues, ends and D or L forms follow the SMILES beside them. *: point of attachment. dCha = N[C@H](CC1CCCCC1)C(=O)O; Bz = O=C(c1ccccc1)*
readout.name: EC50

INSERT INTO assay_data (molecule, readout_name, observed_measurement) VALUES
  ('COC(=O)[C@@H](Cc1ccccc1)NC(=O)[C@H](Cc1c[nH]c2ccccc12)NC(=O)CC(C)C', 'EC50', 'Not Active'),
  ('COC(=O)[C@@H](Cc1ccccc1)NC(=O)[C@@H](Cc1c[nH]c2ccccc12)NC(=O)c1ccccc1', 'EC50', 'Not Active'),
  ('COC(=O)[C@@H](Cc1ccccc1)NC(=O)[C@H](Cc1c[nH]c2ccccc12)NC(=O)c1ccccc1', 'EC50', 'Not Active'),
  ('COC(=O)[C@@H](CC1CCCCC1)NC(=O)[C@H](Cc1c[nH]c2ccccc12)NC(=O)c1ccccc1 (Bz-Trp-[dCha]-OMe)', 'EC50', 'Not Active'),
  ('COC(=O)[C@@H](Cc1ccccc1)NC(=O)[C@H](Cc1c[nH]c2ccccc12)NC(=O)OC(C)(C)C', 'EC50', 'Not Active'),
  ('COC(=O)[C@H](NC(=O)[C@H](Cc1c[nH]c2ccccc12)NC(=O)c1ccccc1)C(C)C', 'EC50', 'Not Active');
